assay overview: Toxicity in human erythrocytes assessed as hemolysis at 100 ug/ml by spectrophotometry
measurement setup: at 100 µg/mL
property: hemolysis at 100 ug/ml (%)
Numbers only, in %.

molecule	numeric result
NC[C@@H]1O[C@H](O[C@H]2[C@@H](O)[C@H](O[C@@H]3[C@@H](O)[C@H](N)C[C@H](N)[C@H]3O[C@H]3O[C@H](CN)[C@@H](O)[C@H](O)[C@H]3N)O[C@@H]2CO)[C@H](N)[C@@H](O)[C@@H]1O.O.O=S(=O)(O)O [NEOMYCIN TRISULFATE HYDRATE]	0.69
CC(C)(C)CC(C)(C)c1ccc(OCCCCc2cn(C[C@H]3O[C@@H](O[C@@H]4[C@@H](O)[C@H](N)C[C@H](N)[C@H]4O[C@H]4O[C@H](CN)[C@@H](O)[C@H](O)[C@H]4N)[C@H](O)[C@@H]3O[C@H]3O[C@@H](CN)[C@@H](O)[C@H](O)[C@H]3N)nn2)c(Cc2ccc(Cl)cc2Cl)c1	22.5

Working through the 3 molecules below one at a time, give hemolysis at 100 ug/ml for each.
1. CC(C)(C)CC(C)(C)c1ccc(OCc2cn(C[C@H]3O[C@@H](O[C@@H]4[C@@H](O)[C@H](N)C[C@H](N)[C@H]4O[C@H]4O[C@H](CN)[C@@H](O)[C@H](O)[C@H]4N)[C@H](O)[C@@H]3O[C@H]3O[C@@H](CN)[C@@H](O)[C@H](O)[C@H]3N)nn2)c(Cc2ccc(Cl)cc2Cl)c1
2. Cc1cc(OCc2cn(C[C@H]3O[C@@H](O[C@@H]4[C@@H](O)[C@H](N)C[C@H](N)[C@H]4O[C@H]4O[C@H](CN)[C@@H](O)[C@H](O)[C@H]4N)[C@H](O)[C@@H]3O[C@H]3O[C@@H](CN)[C@@H](O)[C@H](O)[C@H]3N)nn2)cc(C)c1Cl
3. Cc1cc(OCCCCc2cn(C[C@H]3O[C@@H](O[C@@H]4[C@@H](O)[C@H](N)C[C@H](N)[C@H]4O[C@H]4O[C@H](CN)[C@@H](O)[C@H](O)[C@H]4N)[C@H](O)[C@@H]3O[C@H]3O[C@@H](CN)[C@@H](O)[C@H](O)[C@H]3N)nn2)cc(C)c1Cl

[27.5, 0.75, 0.75]

###

Test system: Staphylococcus epidermidis
assay overview: microbe, parasite or virus in culture
Format: functional
measurement setup: Staphylococcus epidermidis, 81388, 24 h
Description: Antibacterial activity against methicillin-susceptible Staphylococcus epidermidis 81388 after 24 hrs by macrobroth dilution method in the presence of bovine serum albumin
property: MIC90 (µg/mL)
One number for each entry, in µg/mL.

molecule	target of assay	MIC90 / µg/mL
CC(C)(C)CC(C)(C)c1ccc(OCc2cn(C[C@H]3O[C@@H](O[C@@H]4[C@@H](O)[C@H](N)C[C@H](N)[C@H]4O[C@H]4O[C@H](CN)[C@@H](O)[C@H](O)[C@H]4N)[C@H](O)[C@@H]3O[C@H]3O[C@@H](CN)[C@@H](O)[C@H](O)[C@H]3N)nn2)c(Cc2ccc(Cl)cc2Cl)c1	Staphylococcus epidermidis	2
Cc1cc(OCc2cn(C[C@H]3O[C@@H](O[C@@H]4[C@@H](O)[C@H](N)C[C@H](N)[C@H]4O[C@H]4O[C@H](CN)[C@@H](O)[C@H](O)[C@H]4N)[C@H](O)[C@@H]3O[C@H]3O[C@@H](CN)[C@@H](O)[C@H](O)[C@H]3N)nn2)cc(C)c1Cl	Staphylococcus epidermidis	8
NC[C@@H]1O[C@H](O[C@H]2[C@@H](O)[C@H](O[C@@H]3[C@@H](O)[C@H](N)C[C@H](N)[C@H]3O[C@H]3O[C@H](CN)[C@@H](O)[C@H](O)[C@H]3N)O[C@@H]2CO)[C@H](N)[C@@H](O)[C@@H]1O.O.O=S(=O)(O)O [NEOMYCIN TRISULFATE HYDRATE]	Staphylococcus epidermidis	0.5

Now consider the entry below.
# get_value(readout='MIC90', item= Oc1cc(Cl)ccc1Oc1ccc(Cl)cc1Cl )
1
